System: rabbit platelets
Experimental Details: ADP induced platelet aggregation in vitro, turbidimetric method (Born and Cross, modified)
Assay type: cell-based
Measurement Parameters: 1 minute and 30 seconds after ADP; 200 γ; percent of ADP controls; rabbit PRP
Assay Endpoint: percent inhibition of platelet aggregation (%)
The response must be a number in % with no trailing unit.

Here are 2 compounds together with their reported answers.
1. CO[C@]12C[C@@H](CNc3cc(C)ccn3)CN(C)[C@@H]1Cc1cn(C)c3cccc2c13
100
2. CO[C@]12C[C@@H](CNc3ccc(Br)cn3)CN(C)[C@@H]1Cc1cn(C)c3cccc2c13
63

Query compound follows.
[in] Supply percent inhibition of platelet aggregation measured with rabbit platelets for CO[C@]12C[C@@H](COC(=O)c3cncc(Br)c3)CN(C)[C@@H]1Cc1cn(C)c3cccc2c13 [355/347, reference compound] .
[out] 40
